- System: BDF1 mice, Lewis lung carcinoma iv, survival T/C
- Run description: NCI In Vivo Anticancer Drug Screen. Data for tumor model Lewis Lung Carcinoma (intravenous) in B6D2F1 (BDF1) mice
- Conditions: endpoint: median survival time; dose: 25.0 mg/kg/injection; schedule: Q01DX009 (ip); vehicle: saline
Toxic doses and inconclusive results are not listed. The calls were made as follows: active = survival T/C of 150% or more; inactive = T/C below 125% in these data.
Give one outcome, nothing more. List: active, inactive

Some solved entries appear below for comparison.
{"Molecule": "O=P1(NCCCl)OCCCN1CCCl (stereo not given)", "Category label": "inactive"}
{"Molecule": "NC(N)=NOCC[C@@H](N)C(=O)O", "Category label": "inactive"}
{"Molecule": "c1ccc(CN2CCOC2)cc1", "Category label": "inactive"}
{"Molecule": "CC(C)C1OC(=O)/C=C/C=C/C=C/C=C/C=C/CC(O)C(C)C(O)CC(O)CC(O)CC(O)CC(O)CC(O)CC(O)/C=C/C1C (stereo not given)", "Category label": "inactive"}
{"Molecule": "CCN(CC)CCOC(=O)Cc1cccc2c(=O)cc(-c3ccccc3)oc12", "Category label": "inactive"}
{"Molecule": "C[C@]12CC[C@H]3[C@@H](CC[C@]4(O)C[C@@H](O)CC[C@]34C=O)[C@@]1(O)CC[C@@H]2C1=CC(=O)OC1", "Category label": "inactive"}

# lookup: test call for "C[Si](C)(C)O/C=C1/CCOC1=O"
inactive

Record lookup: outcome of this test for "CC(C)n1cc2c(N)ncnc2n1" ?
inactive

What was the test verdict on "NC(=O)c1ncn2c(=O)n(CCCl)nnc12" ?
active

What did the test return for "OCC1(CO)COC2(CCCCC2)N1" ?
inactive

Hey, what did the test say about "O=C(O)CC(=O)O.[NH-]CC[NH-].[Pt+2]" ?
active

I would be grateful if you could indicate the recorded call for NC1=NC(=O)N2CC12 (stereo not given) .
inactive

What was the test verdict on CCOC(=O)C1=C(C#N)C2(CCC(OCc3ccccc3)CC2)C(=O)O1 (stereo not given) ?
inactive

How was Nc1nc2c(c(=O)[nH]1)NC(CCNc1ccc(C(=O)NC(CCC(=O)O)C(=O)O)cc1)CN2 (stereo not given) classified in this test?
inactive

Values from PubChem BioAssay AID274
